Tested on: 628569-122-R-J1-PDC complex spheroid viability
Assay: Anticancer human tumor 628569-122-R-J1-PDC patient-derived head and neck squamous carcinoma cell line growth inhibition [CLK]; active = viability on the fitted dose curve at most 10% of control; inactive = the rest
Conditions: second compound 3.16 µM; first compound 0.003 µM
Your answer must be one of the following: 1.0 = active, 0.0 = inactive

Field: example entries. Status: answers known.
• CC(C)CC(NC(=O)C(Cc1ccccc1)NC(=O)c1cnccn1)B(O)O (centres undefined) + CNC(=O)c1ccc(Nc2nc(OC3CCCC3)c3c(-c4ccc5nc(C)oc5c4)c[nH]c3n2)c(OC)c1 = 0.0
• C=CC(=O)Nc1cc(Nc2nccc(-c3cn(C)c4ccccc34)n2)c(OC)cc1N(C)CCN(C)C + CNC(=O)c1ccc(Nc2nc(OC3CCCC3)c3c(-c4ccc5nc(C)oc5c4)c[nH]c3n2)c(OC)c1 = 0.0
• C=CC(=O)Nc1cc(Nc2nccc(-c3cn(C)c4ccccc34)n2)c(OC)cc1N(C)CCN(C)C + CN1CCN(c2cc(C(=O)Nc3cc4cc(-c5cnn(C)c5)ccc4cn3)ccn2)CC1 = 1.0

Consider the additional molecule presented here.
Kindly provide the recorded test outcome for the following molecule: CC(C)CC(NC(=O)C(Cc1ccccc1)NC(=O)c1cnccn1)B(O)O (centres undefined) + CN1CCN(c2cc(C(=O)Nc3cc4cc(-c5cnn(C)c5)ccc4cn3)ccn2)CC1
1.0

----------
# pIC50 listing for each entry below
Tested on: 628569-122-R-J1-PDC complex spheroid viability
Test: Anticancer human tumor 628569-122-R-J1-PDC cell line growth inhibition [CLK];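 also: spheroids exposed to agents for seven days before readout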
Settings: curve of first compound; second compound 0.0316 µM
Source text: A high-throughput screen of multi-cell type tumor spheroids was designed to identify active combinations of […] and targeted small molecules. Complex spheroids include a stromal component modeled by human endothelial cells (HUVEC) and fibroblasts modeled by human mesenchymal stem cells (MSCs). […] Compounds. […] If the clinical Cmax for an agent had not been determined, the highest concentration tested was 10 microM. […]
Please treat pIC50 as minus the base-10 logarithm of the molar concentration.

* NC(=O)C(=Cn1cnc(-c2cc(C(F)(F)F)cc(C(F)(F)F)c2)n1)c1cncnc1 + CNC(=O)c1ccc(Nc2nc(OC3CCCC3)c3c(-c4ccc5nc(C)oc5c4)c[nH]c3n2)c(OC)c1 | 6.17
* Nc1ccn(C2OC(CO)C(O)C2(F)F)c(=O)n1 (centres undefined) + CNC(=O)c1ccc(Nc2nc(OC3CCCC3)c3c(-c4ccc5nc(C)oc5c4)c[nH]c3n2)c(OC)c1 | 6.70
* C=C(F)C(=O)N1CCN(c2nc(OCC3CCCN3C)nc3c2CCN(c2cccc4cccc(Cl)c24)C3)CC1CC#N (centres undefined) + CN1CCN(c2cc(C(=O)Nc3cc4cc(-c5cnn(C)c5)ccc4cn3)ccn2)CC1 | 5.14

Now let's try a different one.
Provide the documented pIC50 with 628569-122-R-J1-PDC complex spheroid viability as the system for COc1cccc2c1C(=O)c1c(O)c3c(c(O)c1C2=O)CC(O)(C(=O)CO)CC3OC1CC(N)C(O)C(C)O1 (centres undefined) + CN1CCN(c2cc(C(=O)Nc3cc4cc(-c5cnn(C)c5)ccc4cn3)ccn2)CC1
6.18

----------
System: 628569-122-R-J1-PDC complex spheroid viability
Assay: Anticancer human tumor 628569-122-R-J1-PDC cell line growth inhibition [CLK];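 also: spheroids exposed to agents for seven days before readout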;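 as to viability, T/C: 100% = DMSO vehicle control viability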
Conditions: second compound 0.0316 µM; first compound 3.16 µM; stronger effect = lower value
Catalogue of viability, T/C readings, one per entry.
// note: answer is a bare numeric in %

Recorded viability, T/C, per entry:
• CC(CO)NC(=O)c1cc(-c2ccc(Cl)cc2)nn(-c2cnn(C)c2)c1=O (centres undefined) + CN1CCN(c2cc(C(=O)Nc3cc4cc(-c5cnn(C)c5)ccc4cn3)ccn2)CC1 = 205
• O=c1[nH]cc(F)c(=O)[nH]1 + CN1CCN(c2cc(C(=O)Nc3cc4cc(-c5cnn(C)c5)ccc4cn3)ccn2)CC1 = 88.8
• Nc1ccn(C2OC(CO)C(O)C2(F)F)c(=O)n1 (centres undefined) + CNC(=O)c1ccc(Nc2nc(OC3CCCC3)c3c(-c4ccc5nc(C)oc5c4)c[nH]c3n2)c(OC)c1 = 50.8

Query viability, T/C on 628569-122-R-J1-PDC complex spheroid viability for C=C(F)C(=O)N1CCN(c2nc(OCC3CCCN3C)nc3c2CCN(c2cccc4cccc(Cl)c24)C3)CC1CC#N (centres undefined) + CNC(=O)c1ccc(Nc2nc(OC3CCCC3)c3c(-c4ccc5nc(C)oc5c4)c[nH]c3n2)c(OC)c1
126

Can you check CC1(C)CCC(CN2CCN(c3ccc(C(=O)NS(=O)(=O)c4ccc(NCC5CCOCC5)c([N+](=O)[O-])c4)c(Oc4cnc5[nH]ccc5c4)c3)CC2)=C(c2ccc(Cl)cc2)C1 + CN1CCN(c2cc(C(=O)Nc3cc4cc(-c5cnn(C)c5)ccc4cn3)ccn2)CC1 next?
97

What do you get for O=C(c1cc(Cc2n[nH]c(=O)c3ccccc23)ccc1F)N1CCN(C(=O)C2CC2)CC1 + CN1CCN(c2cc(C(=O)Nc3cc4cc(-c5cnn(C)c5)ccc4cn3)ccn2)CC1 ?
56.8

Moving on to Nc1ccccc1NC(=O)c1ccc(CNC(=O)OCc2cccnc2)cc1 + CN1CCN(c2cc(C(=O)Nc3cc4cc(-c5cnn(C)c5)ccc4cn3)ccn2)CC1
153

Another: C#Cc1c(F)ccc2cc(O)cc(-c3ncc4c(N5CC6CCC(C5)N6)nc(OCC56CCCN5CC(F)C6)nc4c3F)c12 (centres undefined) + CNC(=O)c1ccc(Nc2nc(OC3CCCC3)c3c(-c4ccc5nc(C)oc5c4)c[nH]c3n2)c(OC)c1
98.7

Entry COC1C=CCC(C)C(C)S(=O)(=O)NC(=O)c2ccc3c(c2)N(CC2CCC21)CC1(CCCc2cc(Cl)ccc21)CO3 (centres undefined) + CNC(=O)c1ccc(Nc2nc(OC3CCCC3)c3c(-c4ccc5nc(C)oc5c4)c[nH]c3n2)c(OC)c1 please
48.4

Each recorded value in this set is attributed to PubChem BioAssay AID2060611.
